measured target: human OT7T175 (metastin receptor) (human, UniProt Q969F8 1-398)
Sequence (Q969F8 whole entry L364H): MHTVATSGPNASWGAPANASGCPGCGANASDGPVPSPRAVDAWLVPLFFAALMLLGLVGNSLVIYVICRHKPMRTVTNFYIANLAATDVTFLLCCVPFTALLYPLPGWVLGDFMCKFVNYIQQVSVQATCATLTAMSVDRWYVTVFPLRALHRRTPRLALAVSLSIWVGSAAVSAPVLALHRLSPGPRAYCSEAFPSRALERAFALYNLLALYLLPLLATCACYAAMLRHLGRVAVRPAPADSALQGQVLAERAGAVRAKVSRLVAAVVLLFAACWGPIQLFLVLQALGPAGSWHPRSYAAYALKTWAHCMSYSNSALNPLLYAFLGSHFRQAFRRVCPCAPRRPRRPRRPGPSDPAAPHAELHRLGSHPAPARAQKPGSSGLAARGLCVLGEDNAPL
experimental protocol: cell-based or functional assay
Non-standard residues stand in square brackets, D forms with d. No end group written: not given here. *: point of attachment. Diphenylacetyl = O=C(C(c1ccccc1)c1ccccc1)*; Arg(Me) = CNC(=N)NCCC[C@H](N)C(=O)O; 4Pal = N[C@@H](Cc1ccncc1)C(=O)O; d4Pal = N[C@H](Cc1ccncc1)C(=O)O; azaGly = NNC(=O)O
# Ca ion level-increasing activity (FLIPR, 40 s) >= 3 EC50/MS10 EC50 gives Met, anything below gives Not met

Exercise: Quick check, Ca ion level-increasing activity (FLIPR, 40 s) >= 3 EC50/MS10 EC50? [dY]WNSFGL[Arg(Me)]F-NH2 (N-terminus assumed; SMILES CNC(=N)NCCC[C@H](NC(=O)[C@H](CC(C)C)NC(=O)CNC(=O)[C@H](Cc1ccccc1)NC(=O)[C@H](CO)NC(=O)[C@H](CC(N)=O)NC(=O)[C@H](Cc1c[nH]c2ccccc12)NC(=O)[C@H](N)Cc1ccc(O)cc1)C(=O)N[C@@H](Cc1ccccc1)C(N)=O, also called Compound No. 217) [des(1)-[D-Tyr2,Arg(Me)9]MS10]
Solution: Met

Exercise: Threshold query (Ca ion level-increasing activity (FLIPR, 40 s) >= 3 EC50/MS10 EC50) on [dY]NWNTFGL[Arg(Me)]F-NH2 (N-terminus assumed; SMILES CNC(=N)NCCC[C@H](NC(=O)[C@H](CC(C)C)NC(=O)CNC(=O)[C@H](Cc1ccccc1)NC(=O)[C@@H](NC(=O)[C@H](CC(N)=O)NC(=O)[C@H](Cc1c[nH]c2ccccc12)NC(=O)[C@H](CC(N)=O)NC(=O)[C@H](N)Cc1ccc(O)cc1)[C@@H](C)O)C(=O)N[C@@H](Cc1ccccc1)C(N)=O, also called Compound No. 211) [[D-Tyr1,Thr5,Arg(Me)9]MS10]
Solution: Not met

Exercise: Determine whether this binder has Ca ion level-increasing activity (FLIPR, 40 s) no lower than 3 EC50/MS10 EC50: Diphenylacetyl-NSF[azaGly]L[Arg(Me)]F-NH2 (SMILES CNC(=N)NCCC[C@H](NC(=O)[C@H](CC(C)C)NC(=O)NNC(=O)[C@H](Cc1ccccc1)NC(=O)[C@H](CO)NC(=O)[C@H](CC(N)=O)NC(=O)C(c1ccccc1)c1ccccc1)C(=O)N[C@@H](Cc1ccccc1)C(N)=O, also called Compound No. 268) [des(1-3)-Diphenylacetyl-[AzaGly7,Arg(Me)9]MS10]
Solution: Met

Exercise: Answer whether Ca ion level-increasing activity (FLIPR, 40 s) of [dY][d4Pal]NSF[azaGly]L[Arg(Me)]F-NH2 (N-terminus assumed; SMILES CNC(=N)NCCC[C@H](NC(=O)[C@H](CC(C)C)NC(=O)NNC(=O)[C@H](Cc1ccccc1)NC(=O)[C@H](CO)NC(=O)[C@H](CC(N)=O)NC(=O)[C@@H](Cc1ccncc1)NC(=O)[C@H](N)Cc1ccc(O)cc1)C(=O)N[C@@H](Cc1ccccc1)C(N)=O, also called Compound No. 305; KiSS1-305) [des(1)-[D-Tyr2,D-Pya(4)3,AzaGly7,Arg(Me)9]MS10] is greater than or equal to 3 EC50/MS10 EC50.
Solution: Not met

Exercise: Is Ca ion level-increasing activity (FLIPR, 40 s) at least 3 EC50/MS10 EC50? Consider YNWNSFGLXF (Har9; C-terminal amide, also called Compound No. 97) [[Har9]MS10]
Solution: Not met

Exercise: Say whether [dY][dN][4Pal]NSF[azaGly]L[Arg(Me)]F-NH2 (also called Compound No. 303) [[D-Tyr1,D-Asn2,Pya(4)3,AzaGly7,Arg(Me)9]MS10] shows Ca ion level-increasing activity (FLIPR, 40 s) of 3 EC50/MS10 EC50 or more.
Solution: Met
